# Tested on: wheat (Triticum aestivum)
# Experiment Notes: Test A postemergence, wheat
# Type: in vivo
# Condition Summary: Triticum aestivum, post-emergence, 240 h, 125 g ai/ha, 0 to 100 scale (0 no effect, 100 complete control), read-out: Plant response rating, Wheat
Catalogue of plant injury at 125 g/ha readings, one per entry.
Numeric answer plus unit only.

// worked examples, plant injury at 125 g/ha included
1) O=C1NC(CCCC(F)(F)F)c2c(Oc3ncc(Cl)cn3)cccc21 (stereo not shown) = 0%
2) O=C1O[C@@H](CCCC(F)(F)F)c2c(Oc3ncc(Cl)cn3)cccc21 = 0%
3) O=C1OC(CCCCC(F)(F)F)Cc2c(Oc3ncc(Cl)cn3)cccc21 (stereo not shown) = 0%
4) FC(F)(F)CCC1COc2cccc(Oc3ncc(Cl)cn3)c21 (stereo not shown) = 0%
5) O=C1CCC(CCCC(F)(F)F)c2c(Oc3ncc(Cl)cn3)cccc21 (stereo not shown) = 20%
6) O=C1OCc2cccc(Oc3ncc(Cl)cn3)c2C1CCCC(F)(F)F (stereo not shown) = 0%

[Q] Form entry - test system: wheat (Triticum aestivum); read-out: plant injury at 125 g/ha; molecule: O=C1Cc2cccc(Oc3ncc(Cl)cn3)c2C(CCCC(F)(F)F)O1 (stereo not shown)
[A] 10%

[Q] Under wheat (Triticum aestivum): plant injury at 125 g/ha value of FC(F)(F)CCCC1OCc2cccc(Oc3ncc(Cl)cn3)c21 (stereo not shown) ?
[A] 30%

[Q] What is its plant injury at 125 g/ha for wheat (Triticum aestivum)? Entry: CN1C(=O)c2cccc(Oc3ncc(Cl)cn3)c2C1CCCC(F)(F)F (stereo not shown)
[A] 0%
